B1: Subtilisin-chymotrypsin inhibitor-2A, P01053 (parent)
chain: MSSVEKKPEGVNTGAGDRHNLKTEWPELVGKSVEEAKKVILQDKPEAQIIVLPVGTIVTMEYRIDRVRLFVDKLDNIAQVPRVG

- Variants of: B1
- conditions: Hordeum vulgare; pH 3.5; Thermal; DSC; MES 450 mM; reversible: yes; structure 2CI2; whole UniProt chain shown
Quick rule for you: change of melting temperature, mutant - wild type (higher = more stable) at -20 °C or higher means true (1), lower means false (0).

[Q] Does change of melting temperature, mutant - wild type (higher = more stable) meet or surpass -20 °C for "MSSVEKKPEGVNTGAGDRHNLKTEWPELVGKSVEEAKKVILQDKPEAQVIVLPVGTIVTMEYRIDRVRLFVDKLDNIAQVPRVG" ?
[A] true (1)

[Q] Does change of melting temperature, mutant - wild type (higher = more stable) meet or surpass -20 °C for "MSSVEKKPEGVNTGAGDRHNLKTEWPELVGKSVEEAKKVILQDKPEAQIIVLPVGTIVTMEYRIDRVRLFVDKLDNAAQVPRVG" ?
[A] false (0)
